- TEST_TARGET: EGFR (Homo sapiens)
- Construct: endogenous in cells; host or cells: A431 cells (lysate, captured with SUMO1 anti-EGFR antibody)
- Sequence (P00533 25-1210): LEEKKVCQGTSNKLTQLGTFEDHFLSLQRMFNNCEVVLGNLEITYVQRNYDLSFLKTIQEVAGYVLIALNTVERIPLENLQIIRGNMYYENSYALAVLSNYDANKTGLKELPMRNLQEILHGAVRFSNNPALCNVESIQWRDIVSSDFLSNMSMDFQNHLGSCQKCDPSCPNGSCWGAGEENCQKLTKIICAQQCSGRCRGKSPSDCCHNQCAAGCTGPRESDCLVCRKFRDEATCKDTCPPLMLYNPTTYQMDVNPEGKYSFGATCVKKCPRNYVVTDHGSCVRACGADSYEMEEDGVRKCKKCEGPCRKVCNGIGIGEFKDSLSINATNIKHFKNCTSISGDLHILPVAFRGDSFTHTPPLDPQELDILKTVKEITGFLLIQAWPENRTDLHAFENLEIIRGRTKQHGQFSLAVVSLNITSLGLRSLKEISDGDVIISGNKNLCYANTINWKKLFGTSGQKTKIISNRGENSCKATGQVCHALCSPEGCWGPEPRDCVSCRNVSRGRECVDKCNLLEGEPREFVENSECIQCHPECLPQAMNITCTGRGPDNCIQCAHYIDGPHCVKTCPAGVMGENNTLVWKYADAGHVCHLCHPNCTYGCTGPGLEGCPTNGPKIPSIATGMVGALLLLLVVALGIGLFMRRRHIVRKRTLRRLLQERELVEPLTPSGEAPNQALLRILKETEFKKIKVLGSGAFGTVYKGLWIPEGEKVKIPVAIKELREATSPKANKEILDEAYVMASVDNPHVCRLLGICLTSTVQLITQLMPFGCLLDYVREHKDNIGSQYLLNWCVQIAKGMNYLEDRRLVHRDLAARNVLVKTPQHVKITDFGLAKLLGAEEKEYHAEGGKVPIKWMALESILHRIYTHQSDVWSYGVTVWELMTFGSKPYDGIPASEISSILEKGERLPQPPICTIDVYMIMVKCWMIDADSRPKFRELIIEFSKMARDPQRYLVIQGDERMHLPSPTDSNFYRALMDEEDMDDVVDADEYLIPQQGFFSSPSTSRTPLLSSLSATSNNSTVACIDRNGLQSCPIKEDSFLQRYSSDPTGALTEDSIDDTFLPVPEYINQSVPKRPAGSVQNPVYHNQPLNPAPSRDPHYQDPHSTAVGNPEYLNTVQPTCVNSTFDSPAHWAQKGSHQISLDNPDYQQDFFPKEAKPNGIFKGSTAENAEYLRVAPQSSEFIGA
- EXPERIMENTAL_DETAILS: Biochemical EGFR Assay
- Set-up: concentration or dose not given beside the values
- TEST_SETTINGS: protocol P.167
Biochem EGFR % Inhibition (P.167) reference
Report as a plain number; the unit % is understood.

COMPOUND	TEST_TARGET	READOUT_NUMBER
Cc1c(Br)ccc2c1C(=Cc1ccc(CO)o1)C(=O)N2 [10739/C11]	EGFR (Homo sapiens)	−17.0

Query string: Look up Biochem EGFR % Inhibition (P.167): Cc1[nH]c2ccccc2c1C=C1C(=O)Nc2c(Br)cc(Br)cc21 [10740/A08]
Result string: −7.9

Query string: Same read-out for O=C1Nc2ccc(S(=O)(=O)Nc3ccc(C(F)(F)F)cc3)cc2C1=Cc1cccc(OCc2ccccc2)c1 [10739/E03] ?
Result string: 4.9

Query string: Same read-out for Cc1c(Br)ccc2c1C(=Cc1cccc(F)c1F)C(=O)N2 [10737/C05] ?
Result string: 13.3

Query string: Same read-out for COC1CCCN1C=C1C(=O)Nc2ccc(Br)c(C)c21 (stereo not shown) [10740/C04] ?
Result string: 7.8

Query string: Same read-out for Cc1c(Br)ccc2c1C(=Cc1cnc3ccccc3c1)C(=O)N2 [10740/C02] ?
Result string: 15.6

Query string: Same read-out for CCOc1ccc(C=C2C(=O)Nc3ccc(S(=O)(=O)NC)cc32)cc1 [10737/D02] ?
Result string: −14.7

Query string: Same read-out for O=C1Nc2ccc(S(=O)(=O)Nc3ccc(C(F)(F)F)cc3)cc2C1=Cc1ccc(Oc2ccccc2)cc1 [10737/E09] ?
Result string: −0.7

Query string: Same read-out for CNS(=O)(=O)c1ccc2c(c1)C(=Cc1cc(C)ccc1C)C(=O)N2 [10737/D07] ?
Result string: 16.1

Query string: Same read-out for CNS(=O)(=O)c1ccc2c(c1)C(=Cc1cccc(OCc3ccccc3)c1)C(=O)N2 [10739/D03] ?
Result string: 24.7

Query string: Same read-out for Cc1c(Br)ccc2c1C(=Cc1ccoc1)C(=O)N2 [10739/C10] ?
Result string: −7.0

Query string: Same read-out for O=C1Nc2ccc(CCCl)cc2C1=Cc1cc(F)ccc1F [10737/G04] ?
Result string: −19.3
